- procedure text: solvent given as SMILES
- conditions: in OCC(O)CO
I'd be grateful if you could share measured emission maximum for these entries.
Answer format: numeric, nm implied, no suffix.

Per the records, this compound ( `CCN(CC)c1ccc2c(C)cc(=O)oc2c1` ) has emission maximum equal to 463

Per the records, this compound ( `CN(C)c1ccc(/C=C/c2nc3ccc(N(C)C)cc3oc2=O)cc1` ) has emission maximum equal to 659

Per the records, this compound ( `CC(=O)c1ccc2ccc3c(NCCC(=O)NCCCCCCc4nc5c(=O)[nH]c(N)nc5n4[C@H]4C[C@H](O)[C@@H](CO)O4)ccc4ccc1c2c43` ) has emission maximum equal to 567

Per the records, this compound ( `COc1c2ccccc2c(-c2ccccc2)c2ccccc12` ) has emission maximum equal to 426

Per the records, this compound ( `CCN(CC)c1ccc(/C=C/C2=[O+][B-](F)(F)Oc3c2c(=O)oc2cc(N(CC)CC)ccc32)cc1` ) has emission maximum equal to 654
